test system: HCV genotype 1b (Con1) replicon; assay: Anti-HCV luciferase reporter assay on Huh-luc/neo-ET replicon cells; settings: Hepatitis C virus, GETYPE1B, 72 h, read-out: Anti-HCV Activity (EC50), in brackets as mass concentration
Reported EC50 by item:
reportedMetric: EC50 (ng/mL)

1) COc1ccc2c(O[C@@H]3C[C@H]4C(=O)N[C@]5(C(=O)NS(=O)(=O)C6CC6)C[C@H]5/C=C\CCCCN(C)C(=O)[C@@H]4C3)cc(-c3nc(C(C)C)cs3)nc2c1C
42.5
2) CC(C)OC(=O)[C@H](C)N[P@](=O)(OC[C@H]1O[C@@H](n2ccc(=O)[nH]c2=O)[C@](C)(F)[C@@H]1O)Oc1ccccc1
13.9
3) COC(=O)N[C@H](C(=O)N1CCC[C@H]1c1nc(-c2ccc(-c3ccc(-c4c[nH]c([C@@H]5CCCN5C(=O)[C@@H](NC(=O)OC)C(C)C)n4)cc3)cc2)c[nH]1)C(C)C
0.00591
4) CCC[C@H](NC(=O)[C@@H]1[C@H]2CCC[C@H]2CN1C(=O)[C@@H](NC(=O)[C@@H](NC(=O)c1cnccn1)C1CCCCC1)C(C)(C)C)C(=O)C(=O)NC1CC1
126
